Target: T1, TNFR1 (Homo sapiens, UniProt P19438)
T1 chain: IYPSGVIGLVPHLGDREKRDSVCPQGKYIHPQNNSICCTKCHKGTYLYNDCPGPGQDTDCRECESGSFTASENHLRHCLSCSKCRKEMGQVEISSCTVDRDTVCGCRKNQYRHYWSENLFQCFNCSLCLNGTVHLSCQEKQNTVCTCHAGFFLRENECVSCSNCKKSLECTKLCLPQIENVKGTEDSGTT
Experiment: yeast display SC50
measurement type: apparent Kd (screen)

Some binders with recorded apparent Kd (screen):
| binder | measurement type | recorded measurement |
| --- | --- | --- |
| R65M (designed binder) SMEEEVEKAAKEYEKKKKEAIEKHLEKLKAKDKEAAERFLKELEEAAKEYAKDEAKTMSEEEAKMRAKKYKEKVLLSELSEEEQKEIKEAEEKLVRTILKYVEEAAK | apparent Kd (screen) | 0.956 nM |
| E62Y (designed binder) SMEEEVEKAAKEYEKKKKEAIEKHLEKLKAKDKEAAERFLKELEEAAKEYAKDEAKTMSEEYAKRRAKKYKEKVLLSELSEEEQKEIKEAEEKLVRTILKYVEEAAK | apparent Kd (screen) | 0.869 nM |
| I21G (designed binder) SMEEEVEKAAKEYEKKKKEAGEKHLEKLKAKDKEAAERFLKELEEAAKEYAKDEAKTMSEEEAKRRAKKYKEKVLLSELSEEEQKEIKEAEEKLVRTILKYVEEAAK | apparent Kd (screen) | 0.49 nM |
| K31A (designed binder) SMEEEVEKAAKEYEKKKKEAIEKHLEKLKAADKEAAERFLKELEEAAKEYAKDEAKTMSEEEAKRRAKKYKEKVLLSELSEEEQKEIKEAEEKLVRTILKYVEEAAK | apparent Kd (screen) | 0.718 nM |
| I87N (designed binder) SMEEEVEKAAKEYEKKKKEAIEKHLEKLKAKDKEAAERFLKELEEAAKEYAKDEAKTMSEEEAKRRAKKYKEKVLLSELSEEEQKENKEAEEKLVRTILKYVEEAAK | apparent Kd (screen) | 12.5 nM |

Quick one: apparent Kd (screen) for E78N (designed binder) SMEEEVEKAAKEYEKKKKEAIEKHLEKLKAKDKEAAERFLKELEEAAKEYAKDEAKTMSEEEAKRRAKKYKEKVLLSNLSEEEQKEIKEAEEKLVRTILKYVEEAAK ? 2.73 nM

Quick one: apparent Kd (screen) for E81I (designed binder) SMEEEVEKAAKEYEKKKKEAIEKHLEKLKAKDKEAAERFLKELEEAAKEYAKDEAKTMSEEEAKRRAKKYKEKVLLSELSIEEQKEIKEAEEKLVRTILKYVEEAAK ? 0.593 nM

Quick one: apparent Kd (screen) for K48G (designed binder) SMEEEVEKAAKEYEKKKKEAIEKHLEKLKAKDKEAAERFLKELEEAAGEYAKDEAKTMSEEEAKRRAKKYKEKVLLSELSEEEQKEIKEAEEKLVRTILKYVEEAAK ? 0.49 nM
